test: Apparent permeability of the compound across apical to basolateral side in human Caco-2 cells; type: ADME, cell-based
# Papp A→B per entry

molecule_smiles: Cc1nnc(CC[C@@H](C)[C@H]2CC[C@H]3[C@@H]4[C@H](O)C[C@@H]5C[C@H](O)CC[C@]5(C)[C@H]4CC[C@]23C)o1
Papp A→B / ×10⁻⁶ cm/s: 2.6
//
molecule_smiles: CO[C@@H]1C[C@@H]2C[C@H](O)CC[C@]2(C)[C@H]2CC[C@]3(C)[C@@H]([C@H](C)CCc4nnc(C)o4)CC[C@H]3[C@H]12
Papp A→B / ×10⁻⁶ cm/s: 0.27

* * *

Target: G-protein coupled bile acid receptor 1 (Homo sapiens)
Sequence (Q8TDU6 whole entry): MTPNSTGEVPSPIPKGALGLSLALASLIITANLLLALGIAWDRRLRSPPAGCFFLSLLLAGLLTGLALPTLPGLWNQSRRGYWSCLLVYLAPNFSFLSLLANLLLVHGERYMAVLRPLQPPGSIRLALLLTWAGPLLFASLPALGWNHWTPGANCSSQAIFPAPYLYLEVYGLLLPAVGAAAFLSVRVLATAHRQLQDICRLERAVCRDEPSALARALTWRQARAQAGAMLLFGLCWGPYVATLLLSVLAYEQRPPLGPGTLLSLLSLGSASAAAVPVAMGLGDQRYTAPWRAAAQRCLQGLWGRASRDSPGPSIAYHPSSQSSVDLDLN
Test: Agonist activity at recombinant human TGR5 expressed in CHO cells assessed as increase in cAMP accumulation after 30 mins by TR-FRET assay

molecule_smiles: CO[C@@H]1C[C@@H]2C[C@H](O)CC[C@]2(C)[C@H]2CC[C@]3(C)[C@@H]([C@H](C)CCC(=O)NC[C@H](O)[C@@H](O)[C@H](O)[C@H](O)CO)CC[C@H]3[C@H]12
units_text: nM
EC50: 33.3
//
molecule_smiles: CO[C@@H]1C[C@@H]2C[C@H](O)CC[C@]2(C)[C@H]2CC[C@]3(C)[C@@H]([C@H](C)CCC(=O)O)CC[C@H]3[C@H]12
units_text: nM
EC50: 76.8
//
molecule_smiles: CO[C@@H]1C[C@@H]2C[C@H](O)CC[C@]2(C)[C@H]2CC[C@]3(C)[C@@H]([C@H](C)CCC(=O)N(CCCNC(=O)[C@H](O)[C@@H](O)[C@H](O)[C@H](O)CO)CCCNC(=O)[C@H](O)[C@@H](O)[C@H](O)[C@H](O)CO)CC[C@H]3[C@H]12
units_text: nM
EC50: 567
//
molecule_smiles: CO[C@@H]1C[C@@H]2C[C@H](O)CC[C@]2(C)[C@H]2CC[C@]3(C)[C@@H]([C@H](C)CCC(=O)N(C)C[C@H](O)[C@@H](O)[C@H](O)[C@H](O)CO)CC[C@H]3[C@H]12
units_text: nM
EC50: 62.3

* * *

Listed next: entries and their corresponding AUC at 2 h.
test: AUC in C57BL/6 mouse at 5 mg/kg, po measured up to 120 mins by LC-MS/MS analysis; type: ADME, organism-based; parameters: route oral, dose 5 mg/kg, time <=120; conditions: in vivo
readout_kind: AUC at 2 h

molecule_smiles: CO[C@@H]1CC[C@@]2(C)[C@@H](C1)C[C@@H](O)[C@@H]1[C@@H]2CC[C@]2(C)[C@@H]([C@H](C)CCc3nnn[n-]3)CC[C@@H]12.[Na+]
result: 37700 ng·h/mL

molecule_smiles: CO[C@@H]1CC[C@@]2(C)[C@@H](C1)C[C@H](O)[C@@H]1[C@@H]2CC[C@]2(C)[C@@H]([C@H](C)CCC(=O)N3CCCC3)CC[C@@H]12
result: 29600 ng·h/mL

molecule_smiles: CO[C@@H]1C[C@@H]2C[C@H](O)CC[C@]2(C)[C@H]2CC[C@]3(C)[C@@H]([C@H](C)CCC(=O)NC[C@H](O)[C@@H](O)[C@H](O)[C@H](O)CO)CC[C@H]3[C@H]12
result: 1520 ng·h/mL

molecule_smiles: Cc1nnc(CC[C@@H](C)[C@H]2CC[C@H]3[C@@H]4[C@H](O)C[C@@H]5C[C@H](O)CC[C@]5(C)[C@H]4CC[C@]23C)o1
result: 45800 ng·h/mL

molecule_smiles: CO[C@@H]1C[C@@H]2C[C@H](O)CC[C@]2(C)[C@H]2CC[C@]3(C)[C@@H]([C@H](C)CCC(=O)N(C)C[C@H](O)[C@@H](O)[C@H](O)[C@H](O)CO)CC[C@H]3[C@H]12
result: 1250 ng·h/mL

molecule_smiles: CO[C@@H]1CC[C@@]2(C)[C@@H](C1)C[C@@H](OS(=O)(=O)[O-])[C@@H]1[C@@H]2CC[C@]2(C)[C@@H]([C@H](C)CCc3nnn[n-]3)CC[C@@H]12.[Na+].[Na+]
result: 4840 ng·h/mL

molecule_smiles: CO[C@@H]1CC[C@@]2(C)[C@@H](C1)C[C@H](OS(=O)(=O)[O-])[C@@H]1[C@@H]2CC[C@]2(C)[C@@H]([C@H](C)CCC(=O)N3CCCC3)CC[C@@H]12.[Na+]
result: 14300 ng·h/mL

molecule_smiles: CO[C@@H]1C[C@@H]2C[C@H](O)CC[C@]2(C)[C@H]2CC[C@]3(C)[C@@H]([C@H](C)CCc4nnc(C)o4)CC[C@H]3[C@H]12
result: 25700 ng·h/mL
